Data provenance: ChEMBL document CHEMBL1649094

target: Cytochrome P450 11B1, mitochondrial (Homo sapiens, UniProt P15538); assay: Inhibition of human CYP11B1 expressed in hamster V79MZ cells using 11-deoxycorticosterone substrate
Sequence (P15538 whole entry): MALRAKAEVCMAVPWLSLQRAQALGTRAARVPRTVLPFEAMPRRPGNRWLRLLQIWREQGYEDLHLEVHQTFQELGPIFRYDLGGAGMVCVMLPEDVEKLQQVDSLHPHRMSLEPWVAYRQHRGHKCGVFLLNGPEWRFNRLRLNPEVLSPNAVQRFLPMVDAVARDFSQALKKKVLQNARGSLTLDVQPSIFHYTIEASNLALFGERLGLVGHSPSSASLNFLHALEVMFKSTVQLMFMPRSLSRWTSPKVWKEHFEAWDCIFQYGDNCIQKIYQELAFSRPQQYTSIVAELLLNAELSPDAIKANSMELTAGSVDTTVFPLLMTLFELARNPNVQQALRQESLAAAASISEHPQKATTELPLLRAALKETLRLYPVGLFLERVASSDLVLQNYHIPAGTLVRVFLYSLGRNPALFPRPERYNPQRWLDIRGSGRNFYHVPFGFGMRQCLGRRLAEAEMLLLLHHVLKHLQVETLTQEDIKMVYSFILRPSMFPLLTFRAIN
observationType: IC50 (nM)

smilesinput=c1ccc(-c2cc(Cn3cnc4ccccc43)cc(-c3ccccc3)c2)cc1 limitoperator=> observed=1000
smilesinput=c1ccc(Cn2ccnc2)cc1 limitoperator== observed=135
smilesinput=c1ccc(C(c2ccccc2)(c2ccccc2)n2ccnc2)cc1 limitoperator== observed=3
smilesinput=c1ccc(-c2cccc(Cn3ccnc3)c2)cc1 limitoperator== observed=46
smilesinput=Cc1c(C)c(C)c(Cn2ccnc2)c(C)c1C limitoperator== observed=5
smilesinput=Cc1c(C)c(C)c(Cn2cnc3ccccc32)c(C)c1C limitoperator=> observed=1000
smilesinput=c1ccc(Cn2cnc3ccccc32)cc1 limitoperator== observed=246
smilesinput=c1ccc(C(Cn2ccnc2)(c2ccccc2)c2ccccc2)cc1 limitoperator== observed=4
smilesinput=c1ccc(-c2csc(Cn3ccnc3)c2)cc1 limitoperator== observed=19
smilesinput=c1ccc(-c2ccc(Cn3ccnc3)o2)cc1 limitoperator== observed=46
smilesinput=Cc1cc(C)c(Cn2cnc3ccccc32)c(C)c1 limitoperator=> observed=1000
smilesinput=c1ccc(-c2ccc(Cn3ccnc3)cc2)cc1 limitoperator== observed=32
smilesinput=c1ccc(C(c2ccccc2)(c2ccccc2)n2cnc3ccccc32)cc1 limitoperator=> observed=1000
